Reference source: the Deep4Chem optical property database

- ASSAY PROTOCOL: solvent given as SMILES
- MEASUREMENT PARAMETERS: in CCCCCC
Listing of recorded absorption maximum by entry.

[
  {
    "MOLECULE": "CCN(CC)c1ccc2cc(-c3nc4ccccc4s3)c(=O)oc2c1",
    "absorption maximum": "425 nm"
  },
  {
    "MOLECULE": "Cc1ccc(NC(=O)c2sc(Br)nc2C)cc1",
    "absorption maximum": "286.9 nm"
  },
  {
    "MOLECULE": "[C-]#[N+]c1ccc(-c2ccc(N(C)C)cc2)cc1",
    "absorption maximum": "323 nm"
  },
  {
    "MOLECULE": "CC1CCC(O)(c2ccc(-c3cccs3)s2)CC1 (centres undefined)",
    "absorption maximum": "341 nm"
  },
  {
    "MOLECULE": "CC(C)[Si](C#Cc1c2ccccc2c(C#C[Si](C(C)C)(C(C)C)C(C)C)c2nc3c(ccc4cc5ccccc5cc43)nc12)(C(C)C)C(C)C",
    "absorption maximum": "536 nm"
  },
  {
    "MOLECULE": "CCN(CC)c1ccc(-c2nc3c(c4c2-c2ccccc2CC4)-c2ccccc2CC3)cc1",
    "absorption maximum": "355 nm"
  },
  {
    "MOLECULE": "CCCSc1ccc2n1[B-](F)(F)[N+]1=C(SC#N)C=CC1=C2c1ccccc1",
    "absorption maximum": "555 nm"
  },
  {
    "MOLECULE": "Cc1ccc(C#Cc2ccc3ccc4cccc5ccc2c3c45)cc1",
    "absorption maximum": "362 nm"
  },
  {
    "MOLECULE": "CCOC(=O)COc1ccc(/C=C/C2=C3c4ccccc4C(c4[nH]c(C)cc4C)=[N+]3[B-](F)(F)n3c(/C=C/c4ccc(OCC(=O)OCC)cc4)cc(C)c32)cc1",
    "absorption maximum": "674 nm"
  },
  {
    "MOLECULE": "Oc1cccc(/N=C/c2ccccc2Oc2ccccc2)c1",
    "absorption maximum": "320 nm"
  },
  {
    "MOLECULE": "CCCCOc1ccc2cc(-c3ccc(C)cc3)c(=O)oc2c1",
    "absorption maximum": "338 nm"
  },
  {
    "MOLECULE": "O=C1C=C(Nc2ccccc2)C(=O)c2ccccc21",
    "absorption maximum": "450 nm"
  },
  {
    "MOLECULE": "CCCCCCCCC1(CCCCCCCC)c2cc(-c3ccc(C=C4C(=O)c5ccccc5C4=O)cc3)ccc2-c2ccc(-c3ccc(C=C4C(=O)c5ccccc5C4=O)cc3)cc21",
    "absorption maximum": "419 nm"
  },
  {
    "MOLECULE": "CN(C)c1ccc(/C=C2\\CCCC2=O)cc1",
    "absorption maximum": "357 nm"
  },
  {
    "MOLECULE": "COC1=[N+]2C(=C(c3ccccc3)c3ccc(OC)n3[B-]2(F)F)C=C1",
    "absorption maximum": "513 nm"
  },
  {
    "MOLECULE": "CCC1(CC)c2cc(/C=C/c3ccc(/C=C/c4ccc5c(c4)C(CC)(CC)c4cc(N6c7ccccc7Sc7ccccc76)ccc4-5)cc3)ccc2-c2ccc(N3c4ccccc4Sc4ccccc43)cc21",
    "absorption maximum": "440.65 nm"
  },
  {
    "MOLECULE": "Cc1ccc(-n2c(C)ccc2C)cc1",
    "absorption maximum": "238 nm"
  },
  {
    "MOLECULE": "CN(C)c1cccc2c1C(=O)c1ccccc1C2=O",
    "absorption maximum": "487.5 nm"
  },
  {
    "MOLECULE": "CCC1(CC)c2ccccc2-c2c1c1c(c3c2C(CC)(CC)c2cc(B(c4c(C)cc(C)cc4C)c4c(C)cc(C)cc4C)ccc2-3)C(CC)(CC)c2cc(B(c3c(C)cc(C)cc3C)c3c(C)cc(C)cc3C)ccc2-1",
    "absorption maximum": "362 nm"
  }
]
